# Tested on: Escherichia coli IAI1
# assay-text: growth (OD595) fold change vs plate DMSO controls (fold change (ratio)); higher = more growth
# run-conditions: incubation time: 27 h, anaerobic, 37 °C
growth listing for selected compounds.
Field format: numeric only.

compound	growth
CC1(C)S[C@@H]2[C@H](NC(=O)[C@H](N)c3ccc(O)cc3)C(=O)N2[C@H]1C(=O)O [Amoxicillin] (20 µM)	0.796
CC1(C)O[C@@H]2C[C@H]3[C@@H]4C[C@H](F)C5=CC(=O)CC[C@]5(C)[C@H]4[C@@H](O)C[C@]3(C)[C@]2(C(=O)CO)O1 [Flurandrenolide] (20 µM)	1.15
CCN(CC)CCNC(=O)c1cc(Br)c(N)cc1OC [Bromopride] (20 µM)	1.03

Next compound, please.
State the recorded growth for this entry: COC(=O)Nc1nc2ccc(SC(C)C)cc2[nH]1 [Methiazole] (20 µM) 1

====

# Tested on: Clostridium sporogenes DSM 1664
# assay-text: growth (OD595) fold change vs plate DMSO controls (fold change (ratio)); higher = more growth
# run-conditions: incubation time: 27 h, anaerobic, 37 °C
Counter-ions that a name gives are not always drawn.
assay-endpoint: growth
Please state the value as a number alone, without comment.

Would you please look over these solved cases?
compound	reported-measurement
CN[C@@H]1[C@H](O[C@H]2[C@H](O[C@H]3[C@H](O)[C@@H](O)[C@H](NC(=N)N)[C@@H](O)[C@@H]3NC(=N)N)O[C@@H](C)[C@]2(O)CO)O[C@@H](CO)[C@H](O)[C@H]1O [Dihydrostreptomycin sulfate] (20 µM)	1.08
CCOC(=O)[N-]c1c[n+](N2CCOCC2)no1 [Molsidomine] (20 µM)	0.839
CCOC(=O)OC(C)OC1=C(C(=O)Nc2ccccn2)N(C)S(=O)(=O)c2ccccc21 (configuration not stated) [Ampiroxicam] (20 µM)	1.02
COc1ccc(-c2cc(=S)ss2)cc1 [Anethole-trithione] (20 µM)	0.802
CC(C)(C)NC[C@H](O)c1ccc(O)c(CO)c1 [Levalbuterol hydrochloride] (20 µM)	0.932
CC1Cc2ccccc2N1NC(=O)c1ccc(Cl)c(S(N)(=O)=O)c1 (configuration not stated) [Indapamide] (20 µM)	1.04

Look up growth for this compound: CC(C)(C)NC[C@H](O)COc1ccccc1C1CCCC1 [Penbutolol sulfate] (20 µM) 0.971

====

# System: Klebsiella aerogenes DSM 30053
# assay-text: growth (OD595) fold change vs plate DMSO controls (fold change (ratio)); higher = more growth
# run-conditions: incubation time: 27 h, anaerobic, 37 °C
Where a name gives a salt, the structure may show the parent alone.
Quick rule: growth of at least 1 means fulfilled, below that means not fulfilled.

compound	target-or-system	label-value
CCN(CC)CCOC(=O)c1ccc(N)cc1 [Procaine hydrochloride] (20 µM)	Klebsiella aerogenes DSM 30053	fulfilled
CN(C)CCOc1ccc(/C(=C(/CCCl)c2ccccc2)c2ccccc2)cc1 [Toremifene] (20 µM)	Klebsiella aerogenes DSM 30053	fulfilled
CC(C[N+](C)(C)C)OC(N)=O (configuration not stated) [Bethanechol chloride] (20 µM)	Klebsiella aerogenes DSM 30053	not fulfilled

API: above_or_equal(metric=growth, cutoff=1) for item CN1CCN(c2c(F)cc3c(=O)c(C(=O)O)cn4c3c2OCN4C)CC1 [Marbofloxacin] (20 µM) not fulfilled

// inclusive: growth at least 1? input: CCCCNC(=O)NS(=O)(=O)c1ccc(C)cc1 [Tolbutamide] (20 µM) not fulfilled

Is reported growth greater than or equal to 1 here: Cc1cccc(C)c1NC(=O)C1CCCCN1C (configuration not stated) [Mepivacaine hydrochloride] (20 µM) fulfilled

Hi, just wondering whether CC(C)(C)NCC(O)COc1cccc2c1CC(O)C(O)C2 (configuration not stated) [Nadolol] (20 µM) shows growth of 1 or higher. fulfilled

Could you verify whether the entry CO[C@@]1(NC(=O)CSCC#N)C(=O)N2C(C(=O)O)=C(CSc3nnnn3C)CS[C@@H]21 [Cefmetazole sodium salt] (20 µM) shows growth of no less than 1? fulfilled

# bool: growth of CCCCc1cc2ccccc2c(OCCN(C)C)n1 [Dimethisoquin hydrochloride] (20 µM) >= 1 fulfilled

Assess whether reported growth for CCCCCCC[N+](CC)(CC)CCCCc1ccc(Cl)cc1 [Clofilium tosylate] (20 µM) sits at 1 or higher. fulfilled

Please indicate if the recorded growth for CNC[C@H](O)[C@@H](O)[C@H](O)[C@H](O)CO [Meglumine] (20 µM) meets or exceeds 1. fulfilled

API: above_or_equal(metric=growth, cutoff=1) for item C=CC1=C(C(=O)O)N2C(=O)[C@@H](NC(=O)/C(=N\O)c3csc(N)n3)[C@H]2SC1 [Cefdinir] (20 µM) not fulfilled

Is growth at least 1? Consider CCOC(=O)Nc1ccc(NCc2ccc(F)cc2)nc1N [Flupirtine] (20 µM) fulfilled

====

# Tested on: Clostridium sporogenes DSM 1664
# assay-text: growth (OD595) fold change vs plate DMSO controls (fold change (ratio)); higher = more growth
# run-conditions: incubation time: 27 h, anaerobic, 37 °C
Recorded measurements of growth, one per entry
# output: bare number, no unit

Item: O=c1[nH]c(=O)n([C@H]2C[C@H](O)[C@@H](CO)O2)cc1I [Idoxuridine] (20 µM) Test system: Clostridium sporogenes DSM 1664 Read-out: growth Value: ? 0.856

Query the reported growth for Clostridium sporogenes DSM 1664; item: CCC(=O)O[C@@H](O[P@](=O)(CCCCc1ccccc1)CC(=O)N1C[C@H](C2CCCCC2)C[C@H]1C(=O)O)C(C)C [Fosinopril] (20 µM) 1.01

====

Entries and their measured fold change of 2-Phenylethylamine concentration follow.
# Tested on: Ruminococcus gnavus DSM 108212
# assay-text: fold change of 2-Phenylethylamine concentration vs plate DMSO controls (fold change (ratio)); higher = more amine produced, active = hit call of the paper (significant change in both replicates, either direction)
# run-conditions: incubation time: 27 h, anaerobic, 37 °C
Structures can show the parent of a compound that is named as a salt.
Write the value as a bare number.

Some entries whose results are on file:
compound	reported-measurement
CN1CCN(CCCN2c3ccccc3Sc3ccc(Cl)cc32)CC1 [Prochlorperazine dimaleate] (20 µM)	0.97
CCC(=O)OCC(=O)[C@@]1(OC(=O)CC)[C@@H](C)C[C@H]2[C@@H]3CCC4=CC(=O)C=C[C@]4(C)[C@@]3(Cl)[C@@H](O)C[C@@]21C [Beclomethasone dipropionate] (20 µM)	0.921
O=C(c1cc(O)c(O)c(O)c1)c1ccc(O)c(O)c1O [Exifone] (20 µM)	1.07
CC(C)(O)c1ccccc1CC[C@@H](SCC1(CC(=O)O)CC1)c1cccc(/C=C/c2ccc3ccc(Cl)cc3n2)c1 [Montelukast] (20 µM)	0.842
O=S(=O)(c1cccc2cnccc12)N1CCCNCC1 [Fasudil Hydrochloride] (20 µM)	0.942
C[N+](C)(C)C[C@H](O)CC(=O)[O-] [Levocarnitine] (20 µM)	1.22
CC1(C)S[C@@H]2[C@H](NC(=O)[C@H](N)c3ccc(O)cc3)C(=O)N2[C@H]1C(=O)O [Amoxicillin] (20 µM)	0.0375
NC[C@H]1O[C@H](O[C@H]2[C@H](O)[C@@H](O[C@H]3O[C@H](CO)[C@@H](O)[C@H](N)[C@H]3O)[C@H](N)C[C@@H]2N)[C@H](N)[C@@H](O)[C@@H]1O [Kanamycin B] (20 µM)	0.945
O=C(c1ccccc1)c1ccc2n1CCC2C(=O)O (centres undefined) [Ketorolac tromethamine] (20 µM)	0.994
CCCCCNC(=N)N/N=C/c1c[nH]c2ccc(OC)cc12 [Tegaserod maleate] (20 µM)	0.994

# lookup: fold change of 2-Phenylethylamine concentration of CC1=C(CC(=O)O)c2cc(F)ccc2/C1=C\c1ccc([S+](C)[O-])cc1 (centres undefined) [Sulindac] (20 µM) 1

# lookup: fold change of 2-Phenylethylamine concentration of CCOC(=O)c1ccc(C#Cc2ccc3c(c2)C(C)(C)CCS3)nc1 [Tazarotene] (20 µM) 1.22

Form field: reported fold change of 2-Phenylethylamine concentration of CC(=O)N(CC(O)CN(C(C)=O)c1c(I)c(C(=O)NCC(O)CO)c(I)c(C(=O)NCC(O)CO)c1I)c1c(I)c(C(=O)NCC(O)CO)c(I)c(C(=O)NCC(O)CO)c1I (centres undefined) [Iodixanol] (20 µM) 0.815

Data request, read-out fold change of 2-Phenylethylamine concentration, for CCN(CC)CCOC(=O)C1(C2CCCCC2)CCCCC1 [Dicyclomine hydrochloride] (20 µM) 0.815

====

# Test system: Escherichia coli IAI1
# assay-text: growth (OD595) fold change vs plate DMSO controls (fold change (ratio)); higher = more growth
# run-conditions: incubation time: 27 h, anaerobic, 37 °C
Counter-ions that a name gives are not always drawn.
Criterion: growth meeting or surpassing 1. Met: Met. Not met: Not met.

compound	label-value
C=CCc1ccccc1OCC(O)CNC(C)C (stereo not given) [Alprenolol hydrochloride] (20 µM)	Not met
CC(=O)Oc1ccccc1C(=O)Nc1ncc([N+](=O)[O-])s1 [Nitazoxanide] (20 µM)	Not met
O=C(CCCN1CCN(c2ccccn2)CC1)c1ccc(F)cc1 [Azaperone] (20 µM)	Met
CC(=C(CCO)SSCC1CCCO1)N(C=O)Cc1cnc(C)nc1N (stereo in doubt) [Fursultiamine hydrochloride] (20 µM)	Met
NC(=O)Cc1cccc(C(=O)c2ccccc2)c1N [Nepafenac] (20 µM)	Met

Okay, next one:
Does growth meet or surpass 1 for CCC[C@@H]1C[C@@H](C(=O)N[C@@H]([C@H]2O[C@H](SC)[C@H](O)[C@@H](O)[C@H]2O)[C@@H](C)O)N(C)C1 [Lincomycin hydrochloride] (20 µM) ? Not met

These measurements were taken from the supplement of paper PMC12494721.
